Data provenance: ChEMBL document CHEMBL5143526

Could you please report measured ΔTm for the items listed next?
System: Calf thymus DNA
Test: Binding affinity to calf thymus DNA assessed as ligand-induced thermal stabilization of DNA duplex by measuring change in melting temperature at 6.25 uM by thermal denaturation analysis
Type: nucleic-acid assay
Settings: Bos taurus

Reference set, count: 2
molecularString | ΔTm
COc1ccc2nc3cc(Cl)ccc3c(NCCCCCCCC(=O)NCc3cccc(COc4nc(N)nc5[nH]cnc45)c3)c2c1 | 0.2 °C
COc1ccc2nc3cc(Cl)ccc3c(N)c2c1 | 8.5 °C

Could you tell me ΔTm for each of these compounds? They are listed below.
1. COc1ccc2nc3cc(Cl)ccc3c(NCCCCCCCCn3cnc4c(OCc5ccccc5)nc(N)nc43)c2c1
2. COc1ccc2nc3cc(Cl)ccc3c(NCCOCCOCCn3cnc4c(OCc5ccccc5)nc(N)nc43)c2c1
3. COc1ccc2nc3cc(Cl)ccc3c(NCCCCn3cnc4c(OCc5ccccc5)nc(N)nc43)c2c1
4. COc1ccc2nc3cc(Cl)ccc3c(NCCOCCOCC(=O)NCc3cccc(COc4nc(N)nc5[nH]cnc45)c3)c2c1
5. COc1ccc2nc3cc(Cl)ccc3c(NCCC(=O)NCc3cccc(COc4nc(N)nc5[nH]cnc45)c3)c2c1

Reply:
1: 0.7 °C; 2: -1.4 °C; 3: 0.6 °C; 4: -0.7 °C; 5: 1.5 °C
